Where these numbers come from: PubChem BioAssay AID1195

test system: human maximum recommended daily dose, FDA database; experiment: DSSTox (FDAMDD) FDA Maximum (Recommended) Daily Dose Database; conditions: TherapeuticCategory: prostatic hypertrophy treatment; hits give low values
valueKind: maximum recommended daily dose (mmol/kg-bw/day)

> print(dat)
                               linenotation  valueobserved
1  CC(C)(C)NC(=O)[C@H]1CC[C@H]2[C@@H]3CC[C@H]4NC(=O)C=C[C@]4(C)[C@H]3CC[C@]12C       0.000224

====

system: human maximum recommended daily dose, FDA database; assay: DSSTox (FDAMDD) FDA Maximum (Recommended) Daily Dose Database; conditions: TherapeuticCategory: chelating agent; hits give low values
valueKind: maximum recommended daily dose (mmol/kg-bw/day)

> print(dat)
                               linenotation  valueobserved
1  O=C(O)CN(CCN(CC(=O)O)CC(=O)O)CCN(CC(=O)O)CC(=O)O         0.0425

====

Reported maximum recommended daily dose (mmol/kg-bw/day) by item:
system: human maximum recommended daily dose, FDA database; assay: DSSTox (FDAMDD) FDA Maximum (Recommended) Daily Dose Database; details: TherapeuticCategory: antibacterial; hits give low values
valueKind: maximum recommended daily dose (mmol/kg-bw/day)

lineNotation	valueObserved
CCn1ccc(NS(=O)(=O)c2ccc(N)cc2)nc1=O	0.0567
CO[C@@H]1[C@@H](O[C@@H]2O[C@H](C)[C@@H](O[C@H]3C[C@@](C)(O)[C@@H](O)[C@H](C)O3)[C@H](N(C)C)[C@H]2O)[C@@H](CC=O)C[C@@H](C)[C@@H](O[C@@H]2CC[C@H](N(C)C)[C@@H](C)O2)/C=C/C=C/C[C@@H](C)OC(=O)C[C@H]1OC(C)=O	0.0754
CC(=O)OCC1=C(C(=O)O)N2C(=O)[C@@H](NC(=O)Cc3cccs3)[C@H]2SC1	0.252

====

test system: human maximum recommended daily dose, FDA database; experiment: DSSTox (FDAMDD) FDA Maximum (Recommended) Daily Dose Database; settings: TherapeuticCategory: antiarrhythmic; hits give low values
Values of maximum recommended daily dose (mmol/kg-bw/day) strictly less than 0.007 map to MET, and values of at least 0.007 map to NOT MET.

> print(dat)
                                    compound  classassignment
 1  c1ccc(C2(c3ccccc3)CC2C2=NCCN2)cc1 (stereo not given)          NOT MET
 2             C=CCN(C1=NCCN1)c1c(Cl)cccc1Cl              MET
 3  Nc1ncnc2c1ncn2[C@@H]1O[C@H](COP(=O)(O)O)[C@@H](O)[C@H]1O              MET
 4  COC(=O)CCc1ccc(OCC(O)CNC(C)C)cc1 (stereo not given)              MET
 5        CCN(CC)CCCN(c1ccccc1)C1Cc2ccccc2C1          NOT MET
 6  Nc1ncnc2c1ncn2[C@@H]1O[C@H](CO)[C@@H](O)[C@H]1O          NOT MET
 7  O=C(NCC1CCCCN1)c1cc(OCC(F)(F)F)ccc1OCC(F)(F)F (stereo not given)          NOT MET
 8                CCN(CC)CCNC(=O)c1ccc(N)cc1          NOT MET
 9  CCOC(=O)Nc1ccc2c(c1)N(C(=O)CCN1CCOCC1)c1ccccc1S2          NOT MET
10  COc1ccc(C(=O)Nc2ccccc2CCC2CCCCN2C)cc1 (stereo not given)          NOT MET

====

tested on: human maximum recommended daily dose, FDA database; assay: DSSTox (FDAMDD) FDA Maximum (Recommended) Daily Dose Database; details: TherapeuticCategory: antineoplastic; antineumocystis; antiprotozoal; hits give low values
valueKind: maximum recommended daily dose (mmol/kg-bw/day)

> print(dat)
                                   molecule  valueobserved
1  NCCCC(N)(C(=O)O)C(F)F (stereo unspecified)            2.2

====

test system: human maximum recommended daily dose, FDA database; assay: DSSTox (FDAMDD) FDA Maximum (Recommended) Daily Dose Database; settings: TherapeuticCategory: skeletal muscle relaxant; neuromuscular blocker; hits give low values
valueKind: maximum recommended daily dose (mmol/kg-bw/day)

compound	testSystem	valueObserved
COc1cc(C[C@@H]2c3c(cc(OC)c(OC)c3OC)CC[N@@+]2(C)CCCOC(=O)CCC(=O)OCCC[N@@+]2(C)CCc3cc(OC)c(OC)c(OC)c3[C@@H]2Cc2cc(OC)c(OC)c(OC)c2)cc(OC)c1OC	human maximum recommended daily dose, FDA database	4.52e-05
COc1cc2c(cc1OC)C(Cc1cc(OC)c(OC)c(OC)c1)[N+](C)(CCCOC(=O)CC/C=C/CCC(=O)OCCC[N+]1(C)CCc3cc(OC)c(OC)cc3C1Cc1cc(OC)c(OC)c(OC)c1)CC2 (stereo not drawn)	human maximum recommended daily dose, FDA database	0.000227
C=CC[N+]1([C@H]2C[C@H]3[C@@H]4CC[C@H]5C[C@H](O)[C@@H](N6CCOCC6)C[C@]5(C)[C@H]4CC[C@]3(C)[C@H]2OC(C)=O)CCCC1	human maximum recommended daily dose, FDA database	0.00197

====

test system: human maximum recommended daily dose, FDA database; experiment: DSSTox (FDAMDD) FDA Maximum (Recommended) Daily Dose Database; conditions: TherapeuticCategory: none; hits give low values
valueKind: maximum recommended daily dose (mmol/kg-bw/day)

> print(dat)
                                    molecule  valueobserved
 1  Cc1cn([C@H]2C[C@H](O)[C@@H](CO)O2)c(=O)[nH]c1=O          0.413
 2                N[C@@H](Cc1cnc[nH]1)C(=O)O          0.645
 3                        COC(=O)c1ccc(O)cc1         0.0657
 4               N[C@@H](Cc1ccc(O)cc1)C(=O)O          0.552
 5                                   N=C(N)N          0.846
 6  O=[N+]([O-])c1cc(Cl)cc(-c2cc(Cl)cc([N+](=O)[O-])c2O)c1O         0.0058
 7  CCC(OC(C)=O)C(CC(C)N(C)C)(c1ccccc1)c1ccccc1 (stereo not drawn)        0.00659
 8                                 CCOC(C)=O          0.284
 9  OC[C@H]1O[C@@H](O[C@H]2[C@H](O)[C@@H](O)[C@H](O)O[C@@H]2CO)[C@H](O)[C@@H](O)[C@H]1O          0.292
10       O=C1NC(=O)[C@@]2(CCOc3ccc(F)cc32)N1         0.0177
11                                  NCC(=O)O           1.33
12                               CC(C)CCON=O         0.0427
13  Cc1cc2c(C(C)C)c(O)c(O)c(C=O)c2c(O)c1-c1c(C)cc2c(C(C)C)c(O)c(O)c(C=O)c2c1O       0.000642

====

test system: human maximum recommended daily dose, FDA database; test: DSSTox (FDAMDD) FDA Maximum (Recommended) Daily Dose Database; conditions: TherapeuticCategory: oxytocic; abortifacient; hits give low values
maximum recommended daily dose (mmol/kg-bw/day) values for the compounds below.
valueKind: maximum recommended daily dose (mmol/kg-bw/day)

> print(dat)
                               linenotation  valueobserved
1  CCCCC[C@H](O)/C=C/[C@H]1[C@H](O)CC(=O)[C@@H]1C/C=C\CCCC(=O)O       7.09e-05
2  CCCCC[C@H](O)/C=C/[C@@H]1[C@@H](C/C=C\CCCC(=O)O)[C@@H](O)C[C@H]1O       3.53e-05

====

test system: human maximum recommended daily dose, FDA database; assay: DSSTox (FDAMDD) FDA Maximum (Recommended) Daily Dose Database; settings: TherapeuticCategory: mydriatic; decongestant; hits give low values
valueKind: maximum recommended daily dose (mmol/kg-bw/day)

> print(dat)
             linenotation  valueobserved
1  CNC[C@H](O)c1cccc(O)c1        0.00498

====

test system: human maximum recommended daily dose, FDA database; test: DSSTox (FDAMDD) FDA Maximum (Recommended) Daily Dose Database; conditions: TherapeuticCategory: anti inflammatory; antipyretic; hits give low values
valueKind: maximum recommended daily dose (mmol/kg-bw/day)

> print(dat)
                                   molecule  valueobserved
1  O=C(O)C1CCc2cc(C3CCCCC3)c(Cl)cc21 (stereo unspecified)        0.00269
